Test system: E. coli DH5α
assay_method_text: Antibacterial activity: MIC and growth curve against E. coli DH5α in 96-well plate
Format: cell-based
conditions_used: minimal inhibitory concentration against E. coli DH5α; 96-well plate, 5×10^5 CFU/mL, 37° C., judged after 8 h

# substance, MIC / µg/mL
data = [
    ("PRT569 (CDCDLGGALNNSCFAESGQCSCRPHMIGRQC; listed as Homo sapiens)", 25),
    ("PRT871 (CYCNPLGSIHDRCNGSGFCECKTGTTGPKCDECLPGNSWHYGCQPNVCDN; listed as Homo sapiens)", 12.5),
    ("PRT1359 (SREICPVPCSEEHGTCVDGLCVCHDGFAGDDCN; listed as Homo sapiens)", 25),
]

* * *

MIC against P. mirabilis values for the substances below.
Tested on: Proteus mirabilis
assay_method_text: MIC against Gram-negative bacteria: Proteus mirabilis
Assay type: cell-based
conditions_used: 96-well plate, 5×10^5 CFU/mL, 37° C., 10 h
endpoint_label: MIC against P. mirabilis (µg/mL)

# substance, tested_on, endpoint_label, result_units, measured_value
rows = [
    ("PRT548 (CPCPLSVPSNNFAEGCVLRGGRTQCLCKPGYAGASCERCAPGFFGNPLVLGSSCQP; listed as Homo sapiens)", "Proteus mirabilis", "MIC against P. mirabilis", "µg/mL", 12.5),
    ("PRT524 (CNCSRRGTIEAAMPECDRDSGQCRCKPRITGRQCDRCASGFYRFPECVP; listed as Homo sapiens)", "Proteus mirabilis", "MIC against P. mirabilis", "µg/mL", 12.5),
    ("PRT479 (AAMACSHQRCHGHGRCARRDPGQMEAFLHLWPDGSLGDWKSFSCHCYWGWAGPTCQ; listed as Homo sapiens)", "Proteus mirabilis", "MIC against P. mirabilis", "µg/mL", 25),
    ("PRT458 (ECSRLCRNGYCTPTGKCCCSPGWEGDFC; listed as Homo sapiens)", "Proteus mirabilis", "MIC against P. mirabilis", "µg/mL", 12.5),
    ("PRT509 (CNCSTVGSLDFQCNVNTGQCNCHPKFSGAKCTECSRGHWNYPRCNL; listed as Homo sapiens)", "Proteus mirabilis", "MIC against P. mirabilis", "µg/mL", 12.5),
    ("PRT507 (CICYGHARACPLDPATNKSRCECEHNTCGDSCDQCCPGFHQKPWRAGTFLTKTECEA; listed as Homo sapiens)", "Proteus mirabilis", "MIC against P. mirabilis", "µg/mL", 12.5),
    ("PRT492 (CICYGHASSCPWDETTKKLQCQCEHNTCGESCNRCCPGYHQQPWRPGTVSSGNTCEA; listed as Homo sapiens)", "Proteus mirabilis", "MIC against P. mirabilis", "µg/mL", 50),
    ("PRT451 (SFYCSCRPGYKLMSDKRTCVDIDE; listed as Homo sapiens)", "Proteus mirabilis", "MIC against P. mirabilis", "µg/mL", 12.5),
    ("PRT482 (ECIDDETEEICGGHGKCYCGNCYCKAGWHGDKCE; listed as Homo sapiens)", "Proteus mirabilis", "MIC against P. mirabilis", "µg/mL", 25),
    ("PRT485 (QADPCKFLACGEFAQCVKNERTEEAECRCKPGYDSQGSL; listed as Homo sapiens)", "Proteus mirabilis", "MIC against P. mirabilis", "µg/mL", 12.5),
    ("PRT519 (CQCNDNLDFSIPGSCDSLSGSCLICKPGTTGRYCELCADGYFGDAVDAKNCQP; listed as Homo sapiens)", "Proteus mirabilis", "MIC against P. mirabilis", "µg/mL", 12.5),
    ("PRT447 (DVDECAQALHDRRPSQDCHNLSGSYQCTCPDGYRKIGPE; listed as Homo sapiens)", "Proteus mirabilis", "MIC against P. mirabilis", "µg/mL", 50),
    ("PRT540 (CVCHGHADACDAKDPTDPFRLQCTCQHNTCGGTCDRCCPGFNQQPWKPATANSANECQS; listed as Homo sapiens)", "Proteus mirabilis", "MIC against P. mirabilis", "µg/mL", 25),
    ("PRT501 (CGCNPVGSASDEPCTGPCVCKENVEGKACDRCKPGFYNLKEKNPRGCSE; listed as Homo sapiens)", "Proteus mirabilis", "MIC against P. mirabilis", "µg/mL", 12.5),
    ("PRT470 (KCPQPCRNGGKCIGKSKCKCSKGYQGDLCS; listed as Homo sapiens)", "Proteus mirabilis", "MIC against P. mirabilis", "µg/mL", 50),
    ("PRT463 (DVNECLQLPKACAYQCHNLQGSYRCLCPPGQTLLRDGKACT; listed as Homo sapiens)", "Proteus mirabilis", "MIC against P. mirabilis", "µg/mL", 12.5),
    ("PRT502 (CECHGHAAECNVHGVCIACAHNTTGVHCEQCLPGFYGEPSRGTPGDCQP; listed as Homo sapiens)", "Proteus mirabilis", "MIC against P. mirabilis", "µg/mL", 12.5),
    ("PRT573 (CPCPDGPDSGRQFARSCYQDPVTLQLACVCDPGYIGSRCDDCASGYFGNPSEVGGSCQP; listed as Homo sapiens)", "Proteus mirabilis", "MIC against P. mirabilis", "µg/mL", 12.5),
]

Data provenance: patent US9833497B2
